- Target System: HiBit-WIZ fusion protein (Homo sapiens, UniProt O95785+Q96SW2)
- Sequence (O95785 whole entry, the tested form may be a part): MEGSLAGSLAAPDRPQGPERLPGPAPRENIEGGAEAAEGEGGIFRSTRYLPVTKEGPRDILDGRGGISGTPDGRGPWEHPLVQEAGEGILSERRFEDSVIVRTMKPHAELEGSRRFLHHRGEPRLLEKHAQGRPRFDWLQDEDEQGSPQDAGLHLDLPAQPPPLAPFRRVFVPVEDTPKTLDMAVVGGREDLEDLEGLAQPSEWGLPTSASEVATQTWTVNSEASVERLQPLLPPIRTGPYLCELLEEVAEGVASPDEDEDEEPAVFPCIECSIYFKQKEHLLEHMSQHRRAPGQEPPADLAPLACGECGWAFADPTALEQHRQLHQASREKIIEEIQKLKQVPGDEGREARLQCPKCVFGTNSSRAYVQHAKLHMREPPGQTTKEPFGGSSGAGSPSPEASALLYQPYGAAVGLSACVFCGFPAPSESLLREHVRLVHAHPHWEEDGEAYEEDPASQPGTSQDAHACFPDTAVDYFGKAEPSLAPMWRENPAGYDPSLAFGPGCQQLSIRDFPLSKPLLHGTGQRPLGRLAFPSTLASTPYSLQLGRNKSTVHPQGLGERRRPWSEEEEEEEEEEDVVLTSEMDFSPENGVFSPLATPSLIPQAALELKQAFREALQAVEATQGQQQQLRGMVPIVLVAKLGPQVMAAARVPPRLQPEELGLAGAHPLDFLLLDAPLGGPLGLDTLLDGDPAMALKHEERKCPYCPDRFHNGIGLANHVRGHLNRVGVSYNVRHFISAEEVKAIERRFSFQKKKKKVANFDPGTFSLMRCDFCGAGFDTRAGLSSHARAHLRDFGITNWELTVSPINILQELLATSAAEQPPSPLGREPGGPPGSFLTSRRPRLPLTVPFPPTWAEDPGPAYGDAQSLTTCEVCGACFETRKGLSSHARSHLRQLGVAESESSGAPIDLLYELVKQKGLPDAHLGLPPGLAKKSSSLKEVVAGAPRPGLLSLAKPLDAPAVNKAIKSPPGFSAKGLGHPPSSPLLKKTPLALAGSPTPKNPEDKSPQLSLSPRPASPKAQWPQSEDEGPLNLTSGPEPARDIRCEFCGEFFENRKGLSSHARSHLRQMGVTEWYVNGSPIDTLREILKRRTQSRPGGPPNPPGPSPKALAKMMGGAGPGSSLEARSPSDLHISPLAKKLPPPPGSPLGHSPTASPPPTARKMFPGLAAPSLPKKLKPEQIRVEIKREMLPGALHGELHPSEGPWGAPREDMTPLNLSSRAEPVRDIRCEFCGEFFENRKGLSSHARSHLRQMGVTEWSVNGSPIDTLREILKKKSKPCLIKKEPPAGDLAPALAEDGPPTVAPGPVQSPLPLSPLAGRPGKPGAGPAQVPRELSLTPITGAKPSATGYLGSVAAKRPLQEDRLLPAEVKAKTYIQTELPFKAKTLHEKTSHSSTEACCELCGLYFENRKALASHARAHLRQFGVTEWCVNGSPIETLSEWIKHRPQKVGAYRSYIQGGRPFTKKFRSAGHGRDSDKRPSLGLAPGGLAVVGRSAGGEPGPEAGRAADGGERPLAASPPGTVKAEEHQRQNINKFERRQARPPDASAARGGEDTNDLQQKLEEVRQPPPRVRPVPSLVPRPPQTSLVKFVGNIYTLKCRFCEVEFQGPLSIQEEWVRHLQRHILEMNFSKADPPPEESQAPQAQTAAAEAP
- Sequence (Q96SW2 whole entry, the tested form may be a part): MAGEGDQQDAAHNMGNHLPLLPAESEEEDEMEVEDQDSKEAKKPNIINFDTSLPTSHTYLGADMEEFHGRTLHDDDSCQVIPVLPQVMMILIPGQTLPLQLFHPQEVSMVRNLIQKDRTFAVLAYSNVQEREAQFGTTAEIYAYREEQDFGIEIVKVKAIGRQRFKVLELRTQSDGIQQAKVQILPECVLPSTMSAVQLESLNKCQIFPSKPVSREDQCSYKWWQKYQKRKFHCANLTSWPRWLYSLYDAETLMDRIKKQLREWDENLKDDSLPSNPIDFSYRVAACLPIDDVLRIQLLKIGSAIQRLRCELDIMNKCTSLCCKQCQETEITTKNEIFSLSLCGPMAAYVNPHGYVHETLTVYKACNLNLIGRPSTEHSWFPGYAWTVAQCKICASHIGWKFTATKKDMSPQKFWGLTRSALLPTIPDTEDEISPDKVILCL
- Sequence (Q16531 whole entry partner, the tested form may be a part): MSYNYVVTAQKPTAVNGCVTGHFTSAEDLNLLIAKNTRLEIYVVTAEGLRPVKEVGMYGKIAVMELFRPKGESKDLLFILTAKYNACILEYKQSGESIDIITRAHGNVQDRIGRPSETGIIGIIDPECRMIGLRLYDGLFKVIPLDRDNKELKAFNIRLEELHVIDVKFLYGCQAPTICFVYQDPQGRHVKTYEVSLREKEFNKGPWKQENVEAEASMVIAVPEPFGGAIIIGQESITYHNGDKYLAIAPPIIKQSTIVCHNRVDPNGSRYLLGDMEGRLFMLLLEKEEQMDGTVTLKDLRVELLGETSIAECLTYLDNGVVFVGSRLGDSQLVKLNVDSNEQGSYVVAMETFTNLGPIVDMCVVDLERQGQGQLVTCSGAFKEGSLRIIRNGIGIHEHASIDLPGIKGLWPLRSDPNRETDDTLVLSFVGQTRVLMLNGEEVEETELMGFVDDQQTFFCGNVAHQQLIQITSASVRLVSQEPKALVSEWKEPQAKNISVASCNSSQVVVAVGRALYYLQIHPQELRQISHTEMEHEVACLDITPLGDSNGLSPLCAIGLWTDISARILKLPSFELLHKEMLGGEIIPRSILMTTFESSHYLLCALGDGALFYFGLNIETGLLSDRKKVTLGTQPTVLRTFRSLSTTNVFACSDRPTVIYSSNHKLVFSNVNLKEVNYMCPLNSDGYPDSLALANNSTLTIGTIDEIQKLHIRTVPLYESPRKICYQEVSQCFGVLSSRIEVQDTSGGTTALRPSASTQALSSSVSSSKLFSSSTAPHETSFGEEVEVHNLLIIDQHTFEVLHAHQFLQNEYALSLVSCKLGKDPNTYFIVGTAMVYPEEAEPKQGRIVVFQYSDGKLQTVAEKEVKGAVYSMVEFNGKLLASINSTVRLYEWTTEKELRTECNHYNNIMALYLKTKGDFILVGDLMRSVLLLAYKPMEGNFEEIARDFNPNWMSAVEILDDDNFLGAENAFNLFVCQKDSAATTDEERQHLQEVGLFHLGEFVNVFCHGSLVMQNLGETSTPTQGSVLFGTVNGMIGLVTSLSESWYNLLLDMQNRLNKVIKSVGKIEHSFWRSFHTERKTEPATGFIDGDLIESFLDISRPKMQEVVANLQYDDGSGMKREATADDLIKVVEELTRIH
- Test: Quantification of WIZ protein levels in HiBit tag fusion protein assay (WIZ HiBit assay in 293T cells)
- Format: cell-based
- Protocol Conditions: HEK-293T, read-out: WIZ Amax, DMSO-normalized, curve-fitted percentage of WIZ-HiBit remaining at 25 uM; 293T cells
Recorded remaining activity values for a group of compounds are listed next.

CCN1CCN(c2ccc(F)cc2CN2CCCC[C@@H]2COc2ccc3c(c2)CN(C2CCC(=O)NC2=O)C3=O)CC1 (stereo partly shown) :: 15.4%
CCN1CCc2cccc(CN3CCCC[C@@H]3COc3ccc4c(c3)CN(C3CCC(=O)NC3=O)C4=O)c21 (stereo partly shown) :: 3.13%
CCN1CCOc2cccc(CN3CCCC[C@@H]3COc3ccc4c(c3)CN(C3CCC(=O)NC3=O)C4=O)c21 (stereo partly shown) :: 26.1%

Please examine the following record next.
Value of measured remaining activity for the entry CC(C)N1CCN(c2ccc(CN3CCCC[C@@H]3COc3ccc4c(c3)CN(C3CCC(=O)NC3=O)C4=O)cc2)CC1 (stereo partly shown) : 35.8%

----------
- Target System: HiBit-WIZ fusion protein (Homo sapiens, UniProt O95785+Q96SW2)
- Test: Quantification of WIZ protein levels in HiBit tag fusion protein assay (WIZ HiBit assay in 293T cells)
- Assay type: cell-based
- Protocol Conditions: WIZ HiBit assay in 293T cells; 10-point, 5-fold dose response, highest concentration 25 μM, about 18 hours; read-out: WIZ AC50
Reported DC50 values are given for each entry in this list.

The cases that follow already have their DC50 on record.
CCc1nc(C)c(CN2CCCC[C@@H]2COc2ccc3c(c2)CN(C2CCC(=O)NC2=O)C3=O)[nH]1 (stereo partly shown) [Compound I-50dh] :: 6530 nM
O=C1CCC(N2Cc3cc(OC[C@H]4CCCCN4CC4CCN(C(=O)OCc5ccccc5)CC4)ccc3C2=O)C(=O)N1 (stereo partly shown) [Compound I-50cl] :: 644 nM
COC(=O)[C@@H]1CC[C@H](CN2CCCC[C@@H]2COc2ccc3c(c2)CN(C2CCC(=O)NC2=O)C3=O)C1 (stereo partly shown) [Compound I-50bq] :: 1200 nM
N#CCCN1CCN(CC(=O)N2CCCC[C@H]2COc2ccc3c(c2)CN(C2CCC(=O)NC2=O)C3=O)CC1 (stereo partly shown) [Compound I-72x] :: > 25000 nM
O=C1CCC(N2Cc3cc(OC[C@@H]4CCCCN4C(=O)CCC(=O)N4CCOCC4)ccc3C2=O)C(=O)N1 (stereo partly shown) [Compound I-72eo] :: > 25000 nM
CC(C)n1nccc1C(=O)N1CCCC[C@H]1COc1ccc2c(c1)CN(C1CCC(=O)NC1=O)C2=O (stereo partly shown) [Compound I-72ez] :: > 25000 nM

Attention now turns to another entry.
Observed DC50 on HiBit-WIZ fusion protein (Homo sapiens, UniProt O95785+Q96SW2), entry O=C1CCC(N2Cc3cc(OC[C@H]4CCCCN4Cc4ccc(N5CCOCC5)nc4)ccc3C2=O)C(=O)N1 (stereo partly shown) [Compound I-186] , equals 4.3 nM

----------
- Target System: HiBit-WIZ fusion protein (Homo sapiens, UniProt O95785+Q96SW2)
- Test: Quantification of WIZ protein levels in HiBit tag fusion protein assay (WIZ HiBit assay in 293T cells)
- Assay type: cell-based
- Protocol Conditions: HEK-293T, read-out: WIZ Amax, DMSO-normalized, curve-fitted percentage of WIZ-HiBit remaining at 25 uM; 293T cells
Recorded remaining activity by entry
Respond numerically; units are % and should not be typed.

CCN1CCC(c2ccc(CN3CCCC[C@@H]3COc3ccc4c(c3)CN(C3CCC(=O)NC3=O)C4=O)cc2)CC1 (stereo partly shown) :: 32.3
CCc1cc(CN2CCCC[C@@H]2COc2ccc3c(c2)CN(C2CCC(=O)NC2=O)C3=O)ccc1C1CCN(CC)CC1 (stereo partly shown) :: 37
COc1ccccc1CN1CCCC[C@@H]1COc1ccc2c(c1)CN(C1CCC(=O)NC1=O)C2=O (stereo partly shown) :: 16.7

Data point: O=C1CCC(N2Cc3cc(OC[C@H]4CCCCN4Cc4ccc5c(c4)OCO5)ccc3C2=O)C(=O)N1 (stereo partly shown) ; remaining activity = 10

----------
- Target System: HiBit-WIZ fusion protein (Homo sapiens, UniProt O95785+Q96SW2)
- Test: Quantification of WIZ protein levels in HiBit tag fusion protein assay (WIZ HiBit assay in 293T cells)
- Format: cell-based
- Protocol Conditions: HEK-293T, DMSO-normalized, curve-fitted percentage of WIZ-HiBit remaining at 25 uM; 293T cells; read-out: WIZ Amax
Entries and their remaining activity at up to 25 µM values follow.
Output spec: scalar in %, unitless text.

NS(=O)(=O)c1cc(CN2CCCC[C@H]2COc2ccc3c(c2)CN(C2CCC(=O)NC2=O)C3=O)ccc1Cl (stereo partly shown) [Compound I-50bd] :: 58.9
Cc1nn(-c2ccccc2)c(C)c1C(=O)N1CCCC[C@H]1COc1ccc2c(c1)CN(C1CCC(=O)NC1=O)C2=O (stereo partly shown) [Compound I-72gs] :: 42.1
O=C1CCC(N2Cc3cc(OC[C@H]4CCCCN4CC4COC4)ccc3C2=O)C(=O)N1 (stereo partly shown) :: 41.3

GET /value?item= O=C1CCC(N2Cc3cc(OC[C@@H]4CCCCN4C(=O)C4CCCOC4)ccc3C2=O)C(=O)N1 (stereo partly shown) [Compound I-72gj] &field=remaining activity at up to 25 µM returns 97.7

----------
- Target System: HiBit-WIZ fusion protein (Homo sapiens, UniProt O95785+Q96SW2)
- Test: Quantification of WIZ protein levels in HiBit tag fusion protein assay (WIZ HiBit assay in 293T cells)
- Assay type: cell-based
- Protocol Conditions: DMSO-normalized, curve-fitted percentage of WIZ-HiBit remaining at 25 uM; 293T cells
Measure: WIZ Amax (%)
Write the answer as a number in %, unit excluded.

O=C1CCC(N2Cc3cc(OC[C@H]4CCCCN4CC4CCOC4)ccc3C2=O)C(=O)N1 (single isomer, unassigned) :: 44.32
CCN1C2CCC(C2)C1COc1ccc2c(c1)CN(C1CCC(=O)NC1=O)C2=O (single isomer, unassigned) [I-255 (Isomer 2)] :: 71.2
CCN1CCCC(C)(C)C1COc1ccc2c(c1)CN(C1CCC(=O)NC1=O)C2=O (single isomer, unassigned) :: 65.3

WIZ Amax reported for this molecule CCN1C2CCC(C2)C1COc1ccc2c(c1)CN(C1CCC(=O)NC1=O)C2=O (single isomer, unassigned) [I-255 (Isomer 3)] : 73.5

// CCN1CCC(F)(F)CC1COc1ccc2c(c1)CN(C1CCC(=O)NC1=O)C2=O (single isomer, unassigned) [I-252 (Isomer 3)] : WIZ Amax value = 44.9

Memo: CCN1CCC(F)(F)CC1COc1ccc2c(c1)CN(C1CCC(=O)NC1=O)C2=O (single isomer, unassigned) [I-252 (Isomer 1)] , reported WIZ Amax: 41.9

----------
Listing of recorded log10 of DC50 by entry.
- Target System: HiBit-WIZ fusion protein (Homo sapiens, UniProt O95785+Q96SW2)
- Test: Quantification of WIZ protein levels in HiBit tag fusion protein assay (WIZ HiBit assay in 293T cells)
- Assay type: cell-based
- Protocol Conditions: WIZ HiBit assay in 293T cells; 10-point, 5-fold dose response, highest concentration 25 μM, about 18 hours; read-out: WIZ AC50
Values reflect log10 of reported DC50 (µM).

// below: answered compounds
CCCCc1cnc(C(=O)N2CCCC[C@H]2COc2ccc3c(c2)CN(C2CCC(=O)NC2=O)C3=O)nc1OC (some centres unmarked) [Compound I-72aw] :: 0.93
CCc1cc(CN2CCCC[C@@H]2COc2ccc3c(c2)CN(C2CCC(=O)NC2=O)C3=O)ccc1C1CCN(C(=O)OC(C)(C)C)CC1 (some centres unmarked) [Compound I-155] :: -1.70
COC(=O)c1ccc(Oc2ccc(CN3CCCC[C@H]3COc3ccc4c(c3)CN(C3CCC(=O)NC3=O)C4=O)cc2)cc1 (some centres unmarked) [Compound I-50g] :: -1.01

The value of log10 of DC50 measured for the compound CCN1C2CCC(C2)C1COc1ccc2c(c1)CN(C1CCC(=O)NC1=O)C2=O (single isomer, unassigned) [I-255 (Isomer 3)] turned out to be -0.44

For record COc1cc(CN2CCCC[C@@H]2COc2ccc3c(c2)CN(C2CCC(=O)NC2=O)C3=O)ccc1C#N (some centres unmarked) [Compound I-192] the listed log10 of DC50 is -1.60

Recorded log10 of DC50 (compound CO[C@H]1C[C@@H](CN2CCCC[C@@H]2COc2ccc3c(c2)CN(C2CCC(=O)NC2=O)C3=O)C1 (some centres unmarked) [Compound I-118] ): -0.42
